test system: human fecal samples; experiment: 24 h batch fermentation with human fecal samples: production of SCFA; assay type: cell-based; details: 1% of each substance, 37° C., pH 6.9, anaerobic
Readout type: Valeric acid, production of SCFA (%) after 24 h fermentation
Write it as a number; the unit % goes unstated.

Below are worked cases with known answers.
Compound: OC[C@@H](O)[C@@H](O[C@@H]1O[C@H](CO)[C@H](O)[C@H](O)[C@H]1O)[C@H](O)[C@@H](O)CO
Readout number: 0.9

Compound: OC[C@@H](O)[C@@H](O[C@H]1O[C@H](CO)[C@@H](O)[C@H](O)[C@H]1O)[C@H](O)[C@@H](O)CO
Readout number: 1.2

Answer with reported Valeric acid, production of SCFA (%) after 24 h fermentation of OC[C@@H](O)[C@H](O)[C@@H](O)CO
1.9

Read off the recorded Valeric acid, production of SCFA (%) after 24 h fermentation for OC[C@@H](O)[C@@H](O)[C@H](O)[C@@H](O)CO
1.4
